The origin of these recorded values is the supplement of paper PMC12764529.

- Experiment Summary: folding stability dG unfold from trypsin proteolysis; higher = more stable
Mark condition met for reported folding stability dG unfold of 2 kcal/mol or greater; mark condition not met for anything smaller.

Primary Sequence	Assigned Class
SAGGSAGGSANGFVFKIKEVFEVDGKLFLKVTGTDKEYIIPDNAIIEPLEDDSVKVIILPPESAGGSAGGSA [r18_468_TrMRF]	condition not met
SAGGEKTTLTLTLTLTLPPVTTVTYDPETGELRVETRTTTLTLTITVTADSPEEAERALRELLKKLGLSAGG [r13_35_TrROS_Hall]	condition met
SAGGKLIIVIEVNGETIEVDLEEAETLEEAIQKVLDEIRERFPEIGTVRIKVFDEKGKLIKEIEIKLKSAGG [r13_257_TrROS_Hall]	condition met
SAEVVIVIEPGMTEEQVRARLKAALEEALRKGKKVKKIVVKSEEAARRIRDLLKELGVPEEDVEVVLLPSAG [r14_589_TrROS_Hall]	condition met
SAGGESTPEIEPVATLELPTPDGRPITVEVYRLKDGTVRVVVRNPNPPETITLTIPAKEGETIPIFLSAGGS [r16_566_TrMRF]	condition not met
SAGKVKLTIMIHPMRKNGKPRYYVMVKIEIPGGPKAEIMFPFDSPEQAKNLLEDLGLKVEPEDISIMRWSAG [r5_233_TrROS]	condition not met
SAGGSAGGSAGGSMRYDIVEDPETGTVTINRYVVYPPGIEKKTEGEIVPASTVPPGDLLGSAGGSAGGSAGG [r7_455_JUSTAS]	condition not met

----------
- Experiment Summary: folding stability dG unfold from chymotrypsin proteolysis; higher = more stable

Primary Sequence	Result Units	folding stability dG unfold
SAGGSAGGSAGMKTVTVTVPPSAGVDAVREALAAQGMTVTSVSREGDTLTVTTEAPPELLSAGGSAGGSAGG [r11_672_JUSTAS]	kJ/mol	1.23
SAGGIKIEIMFLMPLKDVRSIIDEIAKMPGIKITDVEVDIIPFENGTVMFRVTFEIEIYDPENGEPISAGGS [r8_374_TrROS]	kJ/mol	20
SGLKPNEVKKFTFSFPVTDPVTGKEVTATVELYVSAGNPFVVVKLTVTPPDGKTETKTFVVPPGATLTIDSA [r9_88_TrMRF]	kJ/mol	15.1
SAGGSAGGSANRKVIQFDSPEEILEAIDEAPEDDPVIIEWHDPDGGEPWWIKFDGDEIELIMSAGGSAGGSA [r18_407_TrROS]	kJ/mol	-1.16
SAGGSAGGSAGMVKLRFEVKFKIKLLGEGETNEVVEVDVKVEFEVTLPPFKVRPDGSLLESAGGSAGGSAGG [r11_558_TrMRF]	kJ/mol	18.4
SAGGPEVFVFRDPLTGTWSLAVYDPSTGLWTVTYPDGTVALYRRSGDSWELVEARPVPPAPVDPDLASAGGS [r16_687_TrMRF]	kJ/mol	15.5
SAGGPYEFWFTITIDYPDLTPKQAVEEARKILRKLGFEITDIPVQVDPDPGWITVMARITIRPPEDASAGGS [r16_287_TrROS]	kJ/mol	16.7
SAPVVVVETIPDGGVLIVPAVFEPDKLLEYVEEIVNKIKPKGAEVEAKVIKVEPFEDFVVVTFEVKVKPSAG [r14_345_TrMRF]	kJ/mol	7.1
SAGGSAGGSAGEFEPVPVLTLPGLDDREVRVVLFKDPPLVLLEVEGAPYVLPAEELLRLASAGGSAGGSAGG [r11_370_TrMRF]	kJ/mol	5.29
SAGGSAGGPEITIIIGNAGPIEVALKTAKEIKKILEEKGYPNVKIPILIIPFGSPEKLKEALGGSAGGSAGG [r6_476_TrMRF]	kJ/mol	-0.102
KKEEEIKKLEEAVREALKKKGLEVKIVEVKKNKNGEYTLTIELKDGKKIEITIKKEKMTVEDILKKLKELLS [r1_279_TrROS_Hall]	kJ/mol	16.9
SAMVTARVSDSVLRAYRLPDGYVRLVVFDPKTGEPVVEFVVPEDLITDIVEVGDKAVIHVDVKEEDLKLSAG [r14_755_TrMRF]	kJ/mol	8.28
SAMTVELTLPSEELVEKIKELLPSYVKIEKVEVDEETKTVTVTVSFDPNLSPEEQQAVVEKIKKLIEEKSAG [r14_306_JUSTAS]	kJ/mol	14.9
SSISPSSTLTFSKPFPDDDINAVKEFAEKLAKEIGPDVSVVKIEKDPNNPNKVTITISVPGTSITVNFSNSA [r9_1079_JUSTAS]	kJ/mol	2.78

----------
- Experiment Summary: folding stability dG unfold from chymotrypsin proteolysis; higher = more stable
Result Type: folding stability dG unfold (kcal/mol)

Primary Sequence	Result Type	Result Units	Recorded Result
SAGGSAGGSAGGMRLVRITTEDGRTITAPVGETITITRPDGSKVKITRVEVFELPPEDLSAGGSAGGSAGGS [r10_20_TrROS_Hall]	folding stability dG unfold	kcal/mol	1.51
SAGGSFEFKAEVFYDKEKDIYYVKIPYILKNTGKIIPIVKKVKAGDPIPVEKLAEKIAKELEELGISAGGSA [r2_221_TrMRF]	folding stability dG unfold	kcal/mol	1.89
SAGGTIYIFIPGLTAEEILKFIAEEFPGHENVTIFWPKGYYVKITVDNGNIKIDKVQPMRPMPPGDPSAGGS [r8_225_TrROS]	folding stability dG unfold	kcal/mol	3.31
SAGPWMPYYVKVKFPDEEKLEKLVDEIQDESGFNMQVKKNPENGTRTVRVNMPPNIMEALKKHGFEIVSAGG [r19_306_TrROS]	folding stability dG unfold	kcal/mol	-0.208

----------
- Experiment Summary: folding stability dG unfold from trypsin proteolysis; higher = more stable

Primary Sequence	folding stability dG unfold
SAGGSANNWKPIGEFPFRHPDGWRVTVPIWRDPGEGNIKINVKYQGPNGPPSKQMKEWAKKLLDEISAGGSA [r15_529_TrROS]	0.936 kcal/mol
SAGMKIKIIKLDKNLEELSEEELKKLLEELAKKGLVEKKKDGKKVIPLTVIDKKTKKTYTFYIEIEKPPSAG [r5_243_TrROS_Hall]	1.36 kcal/mol
SAGGSAGGSKKPPIYKIEIEIDGKKLTIEAKSKEEALKALKEELKKKYPNLKITKIKIEKVKPSAGGSAGGS [r12_429_TrROS_Hall]	1.52 kcal/mol
SGREEEIAEELREKLLAEGYTEVEVEIEVRPDPNSDNVLVTVTVRATKKDAEGNWKTYEETIPVLIPAEASA [r9_440_JUSTAS]	3.12 kcal/mol
SAGGMKFELVARFDSKEAAEKAVEELVRELFPDFDVEVEVEVIEDPETGTFLAIATITLPLPGPEDLSAGGS [r8_17_TrMRF]	4.31 kcal/mol
SAGGSAGGSAGGGMSSAPPVTITPVSETTERLPNGTLVRTTTYAVDDGSTVTTTTVTPVSSAGGSAGGSAGG [r7_948_JUSTAS]	-0.127 kcal/mol
SAGKSKPILVEITFPNGEKAKVLAVEFPNTVYVFAVVTSKDGSKYLVEAIIDVSPTKIKIFTKSYPLESAGG [r19_385_TrMRF]	2.56 kcal/mol

----------
- Experiment Summary: folding stability dG unfold from chymotrypsin proteolysis; higher = more stable
Listed sequences paired with reported folding stability dG unfold
Result Type: folding stability dG unfold (kcal/mol)

Primary Sequence	Result Type	Recorded Result
SAGGSAGGSAKPVYKIRIVVKKDGKEFVKEIEVPEDEEEAEALAKELAKKPEVEKVEVEKVSAGGSAGGSAG [r3_310_TrROS_Hall]	folding stability dG unfold	1.84
SAGGMKFELVARFDSKEAAEKAVEELVRELFPDFDVEVEVEVIEDPETGTFLAIATITLPLPGPEDLSAGGS [r8_17_TrMRF]	folding stability dG unfold	4.18
SAGGSAVTITVDDFEDIEDAEITLTRPDGRPVVARVRVEKGEGAPRVTVLWREPGSGRYRVETFPLSAGGSA [r15_1006_TrMRF]	folding stability dG unfold	1.49
SAGGSAGGSAGGKPKIEIELTFIDEDGYAYRLRAEIEIDEDGNVHIEVEIEKVPLPEGLSAGGSAGGSAGGS [r10_563_TrROS_Hall]	folding stability dG unfold	3.28
SAGGSAMRIKVTLENGEEIEIEIEESMTEEEVKELAEELAKKLAEELGIKEVKVEVEEVELPEEEESAGGSA [r15_33_TrROS_Hall]	folding stability dG unfold	2.96
SAGGMLILIKVKNKKYEIEINGKKIEVEEKDGYLIIKVSPEALEALKKIPNLENIEEIKIFPEEELKSAGGS [r8_493_TrROS_Hall]	folding stability dG unfold	2.57
SAGGSAGGSAGKIEIDPSKPALVRVRLVPENGIPREIVVEAGDLSKLLPENFKVLSIELGSAGGSAGGSAGG [r17_449_TrMRF]	folding stability dG unfold	0.397

----------
- Experiment Summary: folding stability dG unfold (combined trypsin and chymotrypsin); higher = more stable
Result Type: folding stability dG unfold (kcal/mol)

Primary Sequence	Recorded Result
SAGSVTVTETKTEGDKETITMTRPETGETVEEKITKKNGKVKVTKTYYSPSGVKLGSSEKVLSESELLLSAG [r5_308_JUSTAS]	-0.0136
SAGGLKDILKELGFPIKSVTVQPMPMPNGMPMRTVSITFENPNGPKFEIEVMVMPNGEVMIDIEWVKPSAGG [r13_818_TrROS]	2.48
